target: human CD33 variant Y50G (human, UniProt P20138 18-364); assay: flow cytometry, IgG on cells expressing the mutant
Sequence (P20138 18-364 Y50G limits assumed): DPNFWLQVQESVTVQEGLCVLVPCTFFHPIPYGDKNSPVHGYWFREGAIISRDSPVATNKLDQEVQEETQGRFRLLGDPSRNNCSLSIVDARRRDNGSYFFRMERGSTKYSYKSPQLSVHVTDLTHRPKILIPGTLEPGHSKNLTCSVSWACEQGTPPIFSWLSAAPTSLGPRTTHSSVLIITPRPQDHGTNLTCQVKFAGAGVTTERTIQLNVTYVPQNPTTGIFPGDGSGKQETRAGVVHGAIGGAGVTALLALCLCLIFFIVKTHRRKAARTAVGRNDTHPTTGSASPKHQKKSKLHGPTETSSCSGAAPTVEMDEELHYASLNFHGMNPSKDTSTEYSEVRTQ

{"binder": "Refmab #3 (antibody, human IgG1, V domains shown, Tested in IgG format; human IgG1 Fc silent (PG-LALA)) VH: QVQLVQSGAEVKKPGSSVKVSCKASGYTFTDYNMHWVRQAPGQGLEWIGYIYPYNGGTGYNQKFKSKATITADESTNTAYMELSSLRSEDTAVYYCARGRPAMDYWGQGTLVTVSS VL: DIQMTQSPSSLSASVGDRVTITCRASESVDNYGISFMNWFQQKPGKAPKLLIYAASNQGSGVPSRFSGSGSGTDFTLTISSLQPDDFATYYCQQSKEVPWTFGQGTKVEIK", "Mean % WT Binding": "91.2 % of WT"}
{"binder": "Refmab #4 (antibody, human IgG1, V domains shown, Tested in IgG format; human IgG1 Fc silent (PG-LALA)) VH: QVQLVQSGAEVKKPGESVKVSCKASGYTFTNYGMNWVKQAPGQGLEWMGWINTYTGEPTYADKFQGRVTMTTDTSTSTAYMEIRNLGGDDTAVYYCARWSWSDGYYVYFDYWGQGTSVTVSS VL: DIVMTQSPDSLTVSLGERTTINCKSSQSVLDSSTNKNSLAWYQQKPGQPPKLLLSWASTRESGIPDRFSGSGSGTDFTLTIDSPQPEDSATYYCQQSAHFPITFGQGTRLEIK", "Mean % WT Binding": "4 % of WT"}
{"binder": "Refmab #1 (antibody, human IgG1, V domains shown, Tested in IgG format; human IgG1 (Absolute Antibody hP67.6, Cat. No. Ab00283-10.0); also called hP67.6) VH: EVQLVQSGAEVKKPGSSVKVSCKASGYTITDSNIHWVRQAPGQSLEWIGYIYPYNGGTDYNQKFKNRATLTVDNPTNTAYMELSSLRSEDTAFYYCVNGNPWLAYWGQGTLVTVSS VL: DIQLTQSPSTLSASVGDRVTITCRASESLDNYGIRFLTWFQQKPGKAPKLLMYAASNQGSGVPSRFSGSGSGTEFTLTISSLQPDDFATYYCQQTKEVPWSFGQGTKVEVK", "Mean % WT Binding": "92.8 % of WT"}
{"binder": "Refmab #2 (antibody, human IgG1, V domains shown, Tested in IgG format; human IgG1 Fc silent (PG-LALA)) VH: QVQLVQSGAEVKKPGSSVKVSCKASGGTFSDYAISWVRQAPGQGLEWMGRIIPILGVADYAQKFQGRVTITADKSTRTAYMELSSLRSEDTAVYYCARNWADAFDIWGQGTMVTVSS VL: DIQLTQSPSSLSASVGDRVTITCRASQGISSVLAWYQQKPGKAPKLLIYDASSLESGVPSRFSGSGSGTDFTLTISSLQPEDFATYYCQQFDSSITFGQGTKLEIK", "Mean % WT Binding": "104 % of WT"}
